Hi there, I'd appreciate the recorded remaining at 1 h, 1 µM for every entry that follows.
- Measurement notes: Metabolic stability in human liver microsomes assessed as compound remaining at 1 uM preincubated for 5 mins followed by NADPH addition and measured after 60 mins by LC-MS/MS analysis
- Format: ADME, Microsome
- Condition notes: read-out: Stability
Answers are plain numbers, in %.

Example results:
# Smiles text, Result type, Readout units, Reading
measured = [
    ("CCc1c2c(nc3ccc(O)cc13)-c1cc3c(c(=O)n1C2)COC(=O)[C@@]3(CC)OC(=O)CNC(=O)c1noc(-c2cc(C(C)C)c(O)cc2O)c1-c1ccc(CN2CCOCC2)cc1", "remaining at 1 h, 1 µM", "%", 80),
    ("CCc1c2c(nc3ccc(O)cc13)-c1cc3c(c(=O)n1C2)COC(=O)[C@@]3(CC)OC(=O)CCNC(=O)c1noc(-c2cc(C(C)C)c(O)cc2O)c1-c1ccc(CN2CCOCC2)cc1", "remaining at 1 h, 1 µM", "%", 75),
]

Let us move to another entry and its remaining at 1 h, 1 µM.
So what's the measured remaining at 1 h, 1 µM for this one? CCc1c2c(nc3ccc(OC(=O)N4CCC(NC(=O)c5noc(-c6cc(C(C)C)c(O)cc6O)c5-c5ccc(CN6CCOCC6)cc5)CC4)cc13)-c1cc3c(c(=O)n1C2)COC(=O)[C@]3(O)CC
87

* * *

- Measurement notes: Half life of compound in PBS buffer at pH 6.0 at 50 uM by HPLC analysis
- Assay type: physicochemical
Kindly supply the reported half-life at 50 µM values for the records listed here.

Check out these entries, answers already filled in.
# Smiles text, half-life at 50 µM
records = [
    ("CCc1c2c(nc3ccc(O)cc13)-c1cc3c(c(=O)n1C2)COC(=O)[C@@]3(CC)OC(=O)CCNC(=O)c1noc(-c2cc(C(C)C)c(O)cc2O)c1-c1ccc(CN2CCOCC2)cc1", "> 24 h"),
    ("CCc1c2c(nc3ccc(OC(=O)N4CCC(NC(=O)c5noc(-c6cc(C(C)C)c(O)cc6O)c5-c5ccc(CN6CCOCC6)cc5)CC4)cc13)-c1cc3c(c(=O)n1C2)COC(=O)[C@]3(O)CC", "> 24 h"),
]

Now consider a different compound.
// returns reported half-life at 50 µM for input CCc1c2c(nc3ccc(O)cc13)-c1cc3c(c(=O)n1C2)COC(=O)[C@@]3(CC)OC(=O)CNC(=O)CNc1cc(-n2nc(C(F)(F)F)c3c2CC(C)(C)CC3=O)ccc1C(N)=O
> 24 h

* * *

- Measurement notes: Half life of compound in PBS buffer at pH 7.4 at 50 uM by HPLC analysis
- Assay type: physicochemical
Result type: half-life at 50 µM (h)
One number for each entry, in h.

# Smiles text, Readout units, half-life at 50 µM
data = [
    ("CCc1c2c(nc3ccc(O)cc13)-c1cc3c(c(=O)n1C2)COC(=O)[C@@]3(CC)OC(=O)CCNC(=O)c1noc(-c2cc(C(C)C)c(O)cc2O)c1-c1ccc(CN2CCOCC2)cc1", "h", 14),
    ("CCc1c2c(nc3ccc(O)cc13)-c1cc3c(c(=O)n1C2)COC(=O)[C@@]3(CC)OC(=O)CCNC(=O)CNc1cc(-n2nc(C(F)(F)F)c3c2CC(C)(C)CC3=O)ccc1C(N)=O", "h", 12),
    ("CCc1c2c(nc3ccc(O)cc13)-c1cc3c(c(=O)n1C2)COC(=O)[C@@]3(CC)OC(=O)CNC(=O)CNc1cc(-n2nc(C(F)(F)F)c3c2CC(C)(C)CC3=O)ccc1C(N)=O", "h", 7),
]

API: the following record is the query input.
# input molecule: CCc1c2c(nc3ccc(O)cc13)-c1cc3c(c(=O)n1C2)COC(=O)[C@@]3(CC)OC(=O)CNC(=O)c1noc(-c2cc(C(C)C)c(O)cc2O)c1-c1ccc(CN2CCOCC2)cc1 ; wanted: its half-life at 50 µM
10
